The reported numbers originate from paper PMC4072508.

Molecular target: T1, Bfl-1, Q16548
T1 chain: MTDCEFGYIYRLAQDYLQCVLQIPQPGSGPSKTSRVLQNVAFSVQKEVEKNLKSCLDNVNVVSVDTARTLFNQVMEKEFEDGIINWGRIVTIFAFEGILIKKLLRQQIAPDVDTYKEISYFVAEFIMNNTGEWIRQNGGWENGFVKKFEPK
Test: peptide SPOT array, c-Myc-tagged receptor at 1 uM or 100 nM, anti-c-Myc-Cy3
The label is Condition met for SPOT signal as a fraction of Bim BH3's signal on the same receptor and array below 0.03 and Condition not met for SPOT signal as a fraction of Bim BH3's signal on the same receptor and array equal to or exceeding 0.03.

Prompt: Hi there! Is SPOT signal as a fraction of Bim BH3's signal on the same receptor and array for AAVGNHVAKLLQSIGQAPESISEKEL [NAE1] below 0.03, do you know?
Completion: Condition met

Prompt: Check LGHTGLACLFLKRGADLGARDSEGRD [ACAP1] too.
Completion: Condition not met

Prompt: And what about the binder "QRKHEGFERDLAALLDKVNSLGETAE" ?
Completion: Condition not met

Prompt: Now try FVGYNSTGAELRHWLDMLANPRRPIA [SYT1] .
Completion: Condition not met

Prompt: Another binder to check: APEEDFFSIHIRIVLDWTEGLFNACG [CYBB]
Completion: Condition not met

Prompt: // next record YTCRGHIPGFLQTTADEFCFYYARKD [HHIP]
Completion: Condition not met

Prompt: Same for LNLLMISVAFLRVILDQLEKLCDSLL [SLC38A8]
Completion: Condition not met

Prompt: Also EEIIHKLAMQDRHIGDNIDHRMVRED [PXT1] ?
Completion: Condition met

Prompt: // repeat for YIVLGLRKTTLQKVGKEVAELVGRVG [NLRX1] and report
Completion: Condition not met

Prompt: Another binder to check: ISSYMVLAPVFGYLLDRYNRKYLMCG [SPNS1]
Completion: Condition not met

Prompt: Same thing, different binder: VLELHPGAQRDHIGCDEVYYLGEGEA [HEXDC]
Completion: Condition not met

Prompt: Do the same for "HRTSNVLTLSLKRFANFSGGKITKDV" please
Completion: Condition not met

Prompt: Item: "QRKHEGFERDDAALGDKVNSLGETAE"
Completion: Condition not met

Prompt: Could you do the same for ACGDSVLARMLRELGDSLRRPQLRLW [SLC19A1] , please?
Completion: Condition not met

Prompt: Queued: "AIKPVSFIRDLKKIARHFRFGNQEDA"
Completion: Condition not met

Prompt: Now this one: DTIYQGFAECLIRLGDSMGRGGELET [NRN1L]
Completion: Condition met
